src = paper PMC9091336

- target-under-test: PyasOBP2
- protocol-text: Fluorescence competitive binding assay with 1-NPN as probe
- condition-details: PyasOBP2 2 μM, 1-NPN 2 μM, ligand 0 to 20 μM, three replicates
Consider the following molecules; for each one, report its IC50.
Numbers only, in µM.

These solved cases illustrate the format of a correct answer.
- molecule: "C=CC(C)=CCC=C(C)C"
  IC50 (µM): 10.5
- molecule: "CCCCOC(=O)c1ccccc1C(=O)OCCCC [Dibutyl phthalate]"
  IC50 (µM): 10.5
- molecule: "CC/C=C\\CCOC(=O)C(C)CC (stereo not shown)"
  IC50 (µM): 11.9

Batch of 3 molecules: report IC50 for each.
1. CC12CCC(CC1)C(C)(C)O2
2. CC/C=C\CCO [cis-3-Hexen-1-ol]
3. C=C(C)[C@H]1CC=C(C)CC1

## Result
[15.1, 8.06, 7.05]

Batch of 3 molecules: report IC50 for each.
1. CC1=CC[C@H](C(C)C)C=C1
2. C=CC(C)(O)CCC=C(C)CCC=C(C)C (mixture of isomers)
3. CCCCCCC=O

## Result
1: 10.7; 2: 7.54; 3: 15.4
